biological target: Cathepsin S (Homo sapiens, UniProt P25774)
Sequence (P25774 whole entry): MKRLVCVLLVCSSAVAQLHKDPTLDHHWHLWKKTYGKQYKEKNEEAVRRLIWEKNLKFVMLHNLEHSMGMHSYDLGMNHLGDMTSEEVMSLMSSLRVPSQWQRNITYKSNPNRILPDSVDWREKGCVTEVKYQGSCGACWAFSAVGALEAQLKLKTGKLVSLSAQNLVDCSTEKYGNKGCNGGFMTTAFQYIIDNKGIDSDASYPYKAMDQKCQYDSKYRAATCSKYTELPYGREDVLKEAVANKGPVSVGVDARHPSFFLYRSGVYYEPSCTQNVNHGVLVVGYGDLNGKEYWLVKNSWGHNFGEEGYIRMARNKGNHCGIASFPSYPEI
parameter_measured: pKi
One number for each entry, as −log10 of the molar value.

Query: Give Cathepsin S (Homo sapiens, UniProt P25774) pKi for CN[C@@H](CC(C)C)C(=O)N1CC(=O)C(NC(=O)[C@H](CC(C)C)NC(=O)OCc2ccccc2)C1 (stereo partly specified)
Reply: 6.54

----------
Target: UniProt P43235
Sequence (P43235 whole entry): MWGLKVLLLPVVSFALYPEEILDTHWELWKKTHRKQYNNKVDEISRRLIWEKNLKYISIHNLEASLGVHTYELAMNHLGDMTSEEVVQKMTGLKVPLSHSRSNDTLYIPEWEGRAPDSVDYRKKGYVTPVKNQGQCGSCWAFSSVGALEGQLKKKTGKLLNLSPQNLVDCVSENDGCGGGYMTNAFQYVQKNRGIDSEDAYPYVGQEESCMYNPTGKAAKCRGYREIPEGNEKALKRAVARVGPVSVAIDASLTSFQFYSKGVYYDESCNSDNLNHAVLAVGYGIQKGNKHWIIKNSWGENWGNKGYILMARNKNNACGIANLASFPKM
parameter_measured: pKi
One number for each entry, as −log10 of the molar value.

Query: Which pKi value is on record for CN[C@@H](CC(C)C)C(=O)N1CC(=O)C(NC(=O)[C@H](CC(C)C)NC(=O)OCc2ccccc2)C1 (stereo partly specified) ?
Reply: 7.11

----------
biological target: Procathepsin L (Homo sapiens)
Sequence (P07711 whole entry): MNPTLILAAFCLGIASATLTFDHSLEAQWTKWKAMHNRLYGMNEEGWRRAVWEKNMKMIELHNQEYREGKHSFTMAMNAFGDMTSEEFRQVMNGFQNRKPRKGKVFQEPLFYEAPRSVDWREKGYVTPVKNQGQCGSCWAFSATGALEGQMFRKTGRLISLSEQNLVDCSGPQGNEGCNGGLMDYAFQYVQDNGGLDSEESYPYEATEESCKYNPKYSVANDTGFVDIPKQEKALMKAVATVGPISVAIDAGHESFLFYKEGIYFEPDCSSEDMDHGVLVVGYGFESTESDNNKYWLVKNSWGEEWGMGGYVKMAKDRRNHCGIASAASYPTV
parameter_measured: Ki (nM)
Give bare numbers, in nM.

Query: Can you look up the measured Ki of CN[C@@H](CC(C)C)C(=O)N1CC(=O)C(NC(=O)[C@H](CC(C)C)NC(=O)OCc2ccccc2)C1 (stereo partly specified) for me?
Reply: 400
